- Test system: INS-1E rat beta cells, no cytokines, CellTiter-Glo ATP, 48 h
- methodSummary: cytokine-free beta-cell viability effect – INS-1E rat cells, ATP luminescence, cherry pick, counter-screen for beta-cell apoptosis protection project, dose response (AID 463229)
The source made the active and inactive calls.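 Rule for the calls: active = compounds raising the signal whose fitted half-maximal concentration is at or below their top tested dose (cut at about 25 µM in these data); inconclusive = flat fit at 30 to 70% activity, or a poor fit; inactive = the rest.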
reportedMetric: AC50

Sample records with AC50:
- molecule: "O=Nc1c(O)c2ccccc2c2ccccc12"
  assayedSystem: "INS-1E rat beta cells, no cytokines, CellTiter-Glo ATP, 48 h"
  AC50: "7.61 µM"
- molecule: "Cc1ccc(-c2c[n+]3c(n2-c2ccccc2)SCC3)cc1"
  assayedSystem: "INS-1E rat beta cells, no cytokines, CellTiter-Glo ATP, 48 h"
  AC50: "2.63 µM"
- molecule: "C=C1C(=O)O[C@H]2C[C@@H](C)[C@@H]3C=CC(=O)[C@@]3(C)C[C@H]12"
  assayedSystem: "INS-1E rat beta cells, no cytokines, CellTiter-Glo ATP, 48 h"
  AC50: "7.64 µM"
- molecule: "Cc1cc(C)c(C)c(S(=O)(=O)N2CCN(c3ncnc4ccccc34)CC2)c1C"
  assayedSystem: "INS-1E rat beta cells, no cytokines, CellTiter-Glo ATP, 48 h"
  AC50: "6.34 µM"
- molecule: "Cc1cc(C(=O)N/N=C/c2cc(Br)cc(Br)c2OC(=O)c2cccc(F)c2)n[nH]1"
  assayedSystem: "INS-1E rat beta cells, no cytokines, CellTiter-Glo ATP, 48 h"
  AC50: "4.79 µM"

Data request: What does the record list as AC50 for `COc1ccc(C(=O)/C(C#N)=N/Nc2ccc([N+](=O)[O-])cc2)cc1` ?
Data returned: 2.15 µM

Data request: Queued: `COc1cccc(/C=N/NC(=O)C(=O)Nc2ccccc2OC(F)(F)C(F)F)c1O`
Data returned: 6.44 µM

Data request: Queued: `NC(=S)N/N=C/c1ccccc1O`
Data returned: > 26 µM (inactive)

Data request: Queued: `CCCSc1nsc(NC(=O)Nc2ccc(F)cc2F)n1`
Data returned: 6.99 µM
